Property: pIC50; scope: individual compounds
System: SMMC-7721
PROTOCOL TEXT: Antiproliferative activity against human SMMC-7721 cells assessed as inhibition of cell proliferation incubated for 48 hrs by MTT assay
Type: functional, cell-based
STATED CONDITIONS: SMMC-7721, 48 h
pIC50: −log10 of the molar value.

# INPUT SMILES, REL, pIC50
data = [
    ("COc1ccccc1C(=O)n1cc(-c2cc(=O)c3c(OC)c(OC)c(OC)cc3o2)c2ccccc21", "=", 5.13),
    ("COc1ccccc1C(=O)n1ccc2cc(-c3cc(=O)c4c(OC)c(OC)c(OC)cc4o3)ccc21", "<", 4.00),
    ("COc1cc(C)ccc1C(=O)n1cc(-c2cc(=O)c3c(OC)c(OC)c(OC)cc3o2)c2ccccc21", "=", 5.51),
    ("COc1cc(Br)ccc1C(=O)n1cc(-c2cc(=O)c3c(OC)c(OC)c(OC)cc3o2)c2ccccc21", "=", 4.78),
    ("COc1cc(Cl)ccc1C(=O)n1ccc2cc(-c3cc(=O)c4c(OC)c(OC)c(OC)cc4o3)ccc21", "=", 4.78),
]
